Some compounds, each annotated with its measured IC50.
Tested on: MDA-MB-231 breast cancer cell line
Test Summary: MTT cell proliferation assay, MDA-MB-231
Format: cell-based
Measurement Parameters: Homo sapiens, 48 h treatment, breast cancer cells
Return type: number; implicit unit µg/mL.

Compound	IC50 [µg/mL]
CCCCCC(/C=C/[C@H]1C=CC(=O)[C@@H]1C/C=C\CCCC(=O)OC)OC(C)=O (some centres unmarked) [Compound 1]	27.5

Consider the additional compound presented here.
Prompt: So what's the measured IC50 for this one? CCCCCC(O)/C=C/[C@H]1C=CC(=O)[C@@H]1C/C=C\CCCC(=O)O (some centres unmarked) [Compound 2]
Completion: 16.5
